Values from paper PMC9044407

ASSAYED TARGET: T1, Suv3ΔC (human, UniProt Q8IYB8 48-722, del723-786)
T1 sequence: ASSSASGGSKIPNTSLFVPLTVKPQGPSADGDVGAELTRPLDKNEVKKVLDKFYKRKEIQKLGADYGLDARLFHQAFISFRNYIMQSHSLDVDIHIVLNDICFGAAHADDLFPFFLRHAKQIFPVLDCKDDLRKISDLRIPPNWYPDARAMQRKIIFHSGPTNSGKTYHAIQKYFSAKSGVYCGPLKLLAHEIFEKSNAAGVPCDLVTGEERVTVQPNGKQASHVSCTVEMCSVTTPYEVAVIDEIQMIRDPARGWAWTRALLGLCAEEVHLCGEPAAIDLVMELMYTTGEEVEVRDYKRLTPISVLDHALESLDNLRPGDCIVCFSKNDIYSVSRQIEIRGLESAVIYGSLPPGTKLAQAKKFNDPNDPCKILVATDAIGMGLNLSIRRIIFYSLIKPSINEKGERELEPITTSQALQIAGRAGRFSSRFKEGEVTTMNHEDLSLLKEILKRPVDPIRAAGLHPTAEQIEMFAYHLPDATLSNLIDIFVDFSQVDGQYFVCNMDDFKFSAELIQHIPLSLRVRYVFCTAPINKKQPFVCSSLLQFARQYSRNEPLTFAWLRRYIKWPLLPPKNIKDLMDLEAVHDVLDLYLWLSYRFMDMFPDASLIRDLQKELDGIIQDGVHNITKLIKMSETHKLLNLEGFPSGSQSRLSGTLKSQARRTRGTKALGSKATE
TEST NAME: fluorescence polarization
MEASUREMENT NAME: Kd

BINDER: dsDNA 10-nt 3' overhang (dsDNA) DNA 1: GGTGTGGTGGCATACGTGCAGACGC DNA 2: GCGTCTGCACGTATGCCACCACACCAGGAGAGGAG
MEASUREMENT NAME: Kd
RESULT: 99 nM

BINDER: DNA-RNA hybrid 10-nt 3' overhang (DNA:RNA) DNA: GGTGTGGTGGCATACGTGCAGACGC RNA: GCGUCUGCACGUAUGCCACCACACCAGGAGAGGAG
MEASUREMENT NAME: Kd
RESULT: 110 nM
